Test: Solubility in water at pH 3.4
Format: physicochemical
quantity: solubility
Respond with a number, then the unit of measure.

Give the reported value of solubility for this record: CO/C(C)=C1/NC(=O)[C@H]([C@@H](C)O)NC(=O)c2csc(n2)-c2cc(OC)c(-c3nc(C(=O)NCCCN4CCOCC4)cs3)nc2-c2csc(n2)[C@@H]2COC(=O)c3c4c5c(cccc5n3O)COC(=O)[C@@H](O[C@H]3C[C@](C)(O)[C@H](N(C)C)[C@H](C)O3)[C@@H](OC4)[C@H](NC(=O)c3csc1n3)c1nc(cs1)C(=O)N2.Cl
68 mg/mL

---

Test: Volume of distribution in steady state in monkey at 1 mg/kg, iv
Format: ADME, organism-based, Macaca mulatta
Design: dose 1 mg/kg, route intravenous
Details: rhesus monkey, in vivo, read-out: Vdss
quantity: Vd (L/kg)
Note: unit L/kg is implicit; provide only the numeric part.

Give the reported value of Vd for this record: CO/C(C)=C1/NC(=O)[C@H]([C@@H](C)O)NC(=O)c2csc(n2)-c2cc(OC)c(-c3nc(C(=O)NCCCN4CCOCC4)cs3)nc2-c2csc(n2)[C@@H]2COC(=O)c3c4c5c(cccc5n3O)COC(=O)[C@@H](O[C@H]3C[C@](C)(O)[C@H](N(C)C)[C@H](C)O3)[C@@H](OC4)[C@H](NC(=O)c3csc1n3)c1nc(cs1)C(=O)N2
1.2

---

System: Streptococcus pneumoniae
Assay: Antibacterial activity against Streptococcus pneumoniae CL2883 in liquid culture by turbidity method
Format: functional
Would you mind telling me the reported MIC of each entry?
Note: unit ng/mL is implicit; provide only the numeric part.

Give the reported value of MIC for this record: CO/C(C)=C1/NC(=O)[C@H]([C@@H](C)O)NC(=O)c2csc(n2)-c2cc(O)c(-c3nc(C(=O)NCCCN4CCN(C)CC4)cs3)nc2-c2csc(n2)[C@@H]2COC(=O)c3c4c5c(cccc5n3O)COC(=O)[C@@H](O[C@H]3C[C@](C)(O)[C@H](N(C)C)[C@H](C)O3)[C@@H](OC4)[C@H](NC(=O)c3csc1n3)c1nc(cs1)C(=O)N2
0.95

Give the reported value of MIC for this record: CO/C(C)=C1/NC(=O)[C@H]([C@@H](C)O)NC(=O)c2csc(n2)-c2cc(O)c(-c3nc(C(=O)NCCNC(N)=O)cs3)nc2-c2csc(n2)[C@@H]2COC(=O)c3c4c5c(cccc5n3O)COC(=O)[C@@H](O[C@H]3C[C@](C)(O)[C@H](N(C)C)[C@H](C)O3)[C@@H](OC4)[C@H](NC(=O)c3csc1n3)c1nc(cs1)C(=O)N2
7.5

Give the reported value of MIC for this record: CO/C(C)=C1/NC(=O)[C@H]([C@@H](C)O)NC(=O)c2csc(n2)-c2cc(O)c(-c3nc(C(=O)NCCNC(=O)CN4CCOCC4)cs3)nc2-c2csc(n2)[C@@H]2COC(=O)c3c4c5c(cccc5n3O)COC(=O)[C@@H](O[C@H]3C[C@](C)(O)[C@H](N(C)C)[C@H](C)O3)[C@@H](OC4)[C@H](NC(=O)c3csc1n3)c1nc(cs1)C(=O)N2
0.48

Give the reported value of MIC for this record: CO/C(C)=C1/NC(=O)[C@H]([C@@H](C)O)NC(=O)c2csc(n2)-c2cc(O)c(-c3nc(C(=O)NCCN(C)C)cs3)nc2-c2csc(n2)[C@@H]2COC(=O)c3c4c5c(cccc5n3O)COC(=O)[C@@H](O[C@H]3C[C@](C)(O)[C@H](N(C)C)[C@H](C)O3)[C@@H](OC4)[C@H](NC(=O)c3csc1n3)c1nc(cs1)C(=O)N2
0.46

Give the reported value of MIC for this record: CO/C(C)=C1/NC(=O)[C@H]([C@@H](C)O)NC(=O)c2csc(n2)-c2cc(O)c(-c3nc(C(=O)N(C)CCN(C)C)cs3)nc2-c2csc(n2)[C@@H]2COC(=O)c3c4c5c(cccc5n3O)COC(=O)[C@@H](O[C@H]3C[C@](C)(O)[C@H](N(C)C)[C@H](C)O3)[C@@H](OC4)[C@H](NC(=O)c3csc1n3)c1nc(cs1)C(=O)N2
3.8

Give the reported value of MIC for this record: CO/C(C)=C1/NC(=O)[C@H]([C@@H](C)O)NC(=O)c2csc(n2)-c2cc(O)c(-c3nc(C(=O)NCCN)cs3)nc2-c2csc(n2)[C@@H]2COC(=O)c3c4c5c(cccc5n3O)COC(=O)[C@@H](O[C@H]3C[C@](C)(O)[C@H](N(C)C)[C@H](C)O3)[C@@H](OC4)[C@H](NC(=O)c3csc1n3)c1nc(cs1)C(=O)N2
60

Data origin, for the record: ChEMBL document CHEMBL1136943
